Assay Remarks: Solubility of amorphous compound of formula (I) in selected solvents (slurry stirred 4 hours, mother liquor by HPLC)
Format: physicochemical
Experimental Parameters: organic solvent or mixture, thermodynamic from solid; 1-butanol, 20° C.
Outcome Measure: solubility at 4 h
Could you give the number and then its unit, please?

Query: Supply recorded solubility at 4 h for C[n+]1ccn(C[C@@]2(C)[C@H](C(=O)[O-])N3C(=O)C[C@H]3S2(=O)=O)n1 [amorphous compound of formula (I)] here.
Reply: 97 mg/mL

----------
Assay Remarks: Solubility of amorphous compound of formula (I) in selected solvents (slurry stirred 4 hours, mother liquor by HPLC)
Assay type: physicochemical
Experimental Parameters: organic solvent or mixture, thermodynamic from solid; Ethanol/methyl tert-butyl ether 40%, 20° C.
Outcome Measure: solubility at 4 h (mg/mL)
Give your result in mg/mL as a bare value.

Query: Supply recorded solubility at 4 h for C[n+]1ccn(C[C@@]2(C)[C@H](C(=O)[O-])N3C(=O)C[C@H]3S2(=O)=O)n1 [amorphous compound of formula (I)] here.
Reply: 16

----------
Assay Remarks: Solubility of amorphous compound of formula (I) in selected solvents (slurry stirred 4 hours, mother liquor by HPLC)
Format: physicochemical
Experimental Parameters: organic solvent or mixture, thermodynamic from solid; Methanol, 40° C.
Outcome Measure: solubility at 4 h

Query: Supply recorded solubility at 4 h for C[n+]1ccn(C[C@@]2(C)[C@H](C(=O)[O-])N3C(=O)C[C@H]3S2(=O)=O)n1 [amorphous compound of formula (I)] here.
Reply: > 400 mg/mL

----------
Assay Remarks: Solubility of amorphous compound of formula (I) in selected solvents (slurry stirred 4 hours, mother liquor by HPLC)
Type: physicochemical
Experimental Parameters: organic solvent or mixture, thermodynamic from solid; 2-propanol, 40° C.
Outcome Measure: solubility at 4 h (mg/mL)
Give your result in mg/mL as a bare value.

Query: Supply recorded solubility at 4 h for C[n+]1ccn(C[C@@]2(C)[C@H](C(=O)[O-])N3C(=O)C[C@H]3S2(=O)=O)n1 [amorphous compound of formula (I)] here.
Reply: 28

----------
Assay Remarks: Solubility of amorphous compound of formula (I) in selected solvents (slurry stirred 4 hours, mother liquor by HPLC)
Format: physicochemical
Experimental Parameters: organic solvent or mixture, thermodynamic from solid; 1-butanol, 40° C.
Experimental: Solubility values of solvents were calculated with respect to the HPLC response factor, set out in FIG. 12. HPLC response factor was calculated for the amorphous compound of formula (I) using samples dissolved in acetonitrile/water 9/1 with the following method: • Column: ZORBAX Eclipse XDB-C18 (150×4.6 mm, 5 μm) • Temperature: 25° C. • Mobile phase: A: 0.05M Sodium ortophosphate/water, B: Acetonitrile • Gradient: from 5% of B to 95% of B in 10 min • Detector: UV λ=220 nm […]
Outcome Measure: solubility at 4 h (mg/mL)
Give your result in mg/mL as a bare value.

Query: Supply recorded solubility at 4 h for C[n+]1ccn(C[C@@]2(C)[C@H](C(=O)[O-])N3C(=O)C[C@H]3S2(=O)=O)n1 here.
Reply: 167

----------
Assay Remarks: Solubility of amorphous compound of formula (I) in selected solvents (slurry stirred 4 hours, mother liquor by HPLC)
Format: physicochemical
Experimental Parameters: organic solvent or mixture, thermodynamic from solid; Ethanol/acetone 20%, 20° C.
Outcome Measure: solubility at 4 h

Query: Supply recorded solubility at 4 h for C[n+]1ccn(C[C@@]2(C)[C@H](C(=O)[O-])N3C(=O)C[C@H]3S2(=O)=O)n1 [amorphous compound of formula (I)] here.
Reply: > 300 mg/mL

----------
Assay Remarks: Solubility of amorphous compound of formula (I) in selected solvents (slurry stirred 4 hours, mother liquor by HPLC)
Type: physicochemical
Experimental Parameters: organic solvent or mixture, thermodynamic from solid; Dimethylsulfoxide, 40° C.
Outcome Measure: solubility at 4 h

Query: Supply recorded solubility at 4 h for C[n+]1ccn(C[C@@]2(C)[C@H](C(=O)[O-])N3C(=O)C[C@H]3S2(=O)=O)n1 [amorphous compound of formula (I)] here.
Reply: > 400 mg/mL

----------
Assay Remarks: Solubility of amorphous compound of formula (I) in selected solvents (slurry stirred 4 hours, mother liquor by HPLC)
Assay type: physicochemical
Experimental Parameters: organic solvent or mixture, thermodynamic from solid; Ethanol/acetone 40%, 20° C.
Outcome Measure: solubility at 4 h

Query: Supply recorded solubility at 4 h for C[n+]1ccn(C[C@@]2(C)[C@H](C(=O)[O-])N3C(=O)C[C@H]3S2(=O)=O)n1 here.
Reply: > 300 mg/mL

----------
Assay Remarks: Solubility of amorphous compound of formula (I) in selected solvents (slurry stirred 4 hours, mother liquor by HPLC)
Type: physicochemical
Experimental Parameters: organic solvent or mixture, thermodynamic from solid; Ethanol/methyl tert-butyl ether 20%, 20° C.
Outcome Measure: solubility at 4 h
Could you give the number and then its unit, please?

Query: Supply recorded solubility at 4 h for C[n+]1ccn(C[C@@]2(C)[C@H](C(=O)[O-])N3C(=O)C[C@H]3S2(=O)=O)n1 here.
Reply: 52 mg/mL

----------
Assay Remarks: Solubility of amorphous compound of formula (I) in selected solvents (slurry stirred 4 hours, mother liquor by HPLC)
Assay type: physicochemical
Experimental Parameters: organic solvent or mixture, thermodynamic from solid; Ethanol, 40° C.
Outcome Measure: solubility at 4 h

Query: Supply recorded solubility at 4 h for C[n+]1ccn(C[C@@]2(C)[C@H](C(=O)[O-])N3C(=O)C[C@H]3S2(=O)=O)n1 [amorphous compound of formula (I)] here.
Reply: > 420 mg/mL

----------
Assay Remarks: Solubility assessment of Form C in saline physiological solution (HPLC)
Assay type: physicochemical
Experimental Parameters: physiologic solution (0.9% NaCl), saline or isotonic, thermodynamic from solid; physiologic solution (0.9% of NaCl), ~20 ° C., timepoint 5 hours; read-out: Solubility (mg/ml) at ambient temperature
Outcome Measure: solubility at 5 h

Query: Supply recorded solubility at 5 h for C[n+]1ccn(C[C@@]2(C)[C@H](C(=O)[O-])N3C(=O)C[C@H]3S2(=O)=O)n1 [Form C] here.
Reply: > 812 mg/mL
